Molecular target: T1, human nerve growth factor (human, UniProt P01138 122-241)
T1 construct: Immobilised on CM5 chips for BIAcore, soluble in neuron survival assays; also called human NGF; hNGF
T1 sequence (P01138 122-241 limits assumed): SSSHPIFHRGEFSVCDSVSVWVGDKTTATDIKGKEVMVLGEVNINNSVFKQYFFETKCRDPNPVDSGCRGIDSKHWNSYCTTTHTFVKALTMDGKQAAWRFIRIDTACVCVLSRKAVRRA
Assay: BIAcore SPR screen, Fab over immobilised human NGF
Experimental: A screening BIAcore assay was optimized to determine the affinity of Fab clones from libraries. Supernatants of small culture lysates were injected at […] for 2 min. Dissociation times of 10 to 15 minutes were used for determination of a single exponential dissociation rate (koff) using BIAevaluation software. […] Clones showing improved (slower) koff values were expressed at large scale and full kinetic parameters, kₒₙ and koff, were determined on purified protein. […]
Item-by-item account of koff

# annotated cases, reported koff shown
8L2-6D5 Fab with CDR H3 mutation T104S (Fab, V domains shown, See note of m8; also called T1045 (so in the source)) VH: QVQLQESGPGLVKPSETLSLTCTVSGFSLIGYDINWIRQPPGKGLEWIGMIWGDGTTDYNSALKSRVTISKDTSKNQFSLKLSSVTAADTAVYYCARGGYYYGSSYYFDYWGQGTLVTVS VL: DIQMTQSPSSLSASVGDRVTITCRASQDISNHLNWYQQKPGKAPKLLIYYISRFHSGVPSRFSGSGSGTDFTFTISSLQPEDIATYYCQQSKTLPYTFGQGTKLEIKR	0.0022 s⁻¹
8L2-6D5 Fab with CDR H3 mutation D109G (Fab, V domains shown, See note of m8) VH: QVQLQESGPGLVKPSETLSLTCTVSGFSLIGYDINWIRQPPGKGLEWIGMIWGDGTTDYNSALKSRVTISKDTSKNQFSLKLSSVTAADTAVYYCARGGYYYGTSYYFGYWGQGTLVTVS VL: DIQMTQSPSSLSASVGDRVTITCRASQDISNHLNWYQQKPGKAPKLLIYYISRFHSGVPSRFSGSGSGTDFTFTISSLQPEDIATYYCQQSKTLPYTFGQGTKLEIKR	0.001 s⁻¹

Below: the item to evaluate.
**Query** Which measured koff value corresponds to 8L2-6D5 Fab with CDR H3 mutation Y110R (Fab, V domains shown, See note of m8) VH: QVQLQESGPGLVKPSETLSLTCTVSGFSLIGYDINWIRQPPGKGLEWIGMIWGDGTTDYNSALKSRVTISKDTSKNQFSLKLSSVTAADTAVYYCARGGYYYGTSYYFDRWGQGTLVTVS VL: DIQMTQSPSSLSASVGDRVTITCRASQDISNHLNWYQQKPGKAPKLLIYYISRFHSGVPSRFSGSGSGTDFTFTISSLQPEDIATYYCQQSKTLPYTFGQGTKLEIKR ?
**Result** 0.0016 s⁻¹
